system: Saccharomyces cerevisiae; assay: Inhibition of Saccharomyces cerevisiae alpha-glucosidase at 200 uM using p-nitrophenyl-glycoside as substrate incubated for 20 mins followed by substrate addition measured immediately relative to control
Readout: inhibition (%)
Number only, in %; omit the unit.

What inhibition value was documented for this compound, `COc1cc(O)c2c(=O)oc(C[C@@H](O)CC(C)=O)cc2c1` ? 38

Bench note: what inhibition did `COc1cc(O)c2c(=O)oc(C[C@H](C)O)cc2c1` show? 33

Consider the compound shown here: C[C@H]1O[C@H](O[C@H]2[C@H](O)[C@@H](O)[C@@H](O[C@H]3[C@H](O)[C@@H](O)C(O)O[C@@H]3CO)O[C@@H]2CO)[C@H](O)[C@@H](O)[C@@H]1N[C@H]1C=C(CO)[C@@H](O)[C@H](O)[C@H]1O (some centres undefined) What is its recorded inhibition? 19

// returns reported inhibition for input `COc1cc(O)c2c(=O)oc(C[C@@H](O)CO)cc2c1` 43

----------
assay: Inhibition of Saccharomyces cerevisiae alpha-glucosidase using p-nitrophenyl-glycoside as substrate incubated for 20 mins followed by substrate addition measured immediately
// classify: if (IC50 < 100 µM) T else F

INSERT INTO results (compound, category_label) VALUES
  ('COc1cc(O)c2c(=O)oc(C[C@@H](O)C(Cl)Cl)cc2c1O', 'T'),
  ('COc1cc(O)c2c(=O)oc(C[C@@H](O)CO)cc2c1O', 'T'),
  ('COc1cc(O)c2c(=O)oc(C[C@@H]3O[C@@H]3C(C)=O)cc2c1', 'T'),
  ('COc1cc(O)c2c(=O)oc(C[C@@H](Cl)CO)cc2c1', 'F'),
  ('COc1cc(O)c2c(=O)oc(C[C@@H](Cl)CO)cc2c1O', 'F'),
  ('C[C@H]1O[C@H](O[C@H]2[C@H](O)[C@@H](O)[C@@H](O[C@H]3[C@H](O)[C@@H](O)C(O)O[C@@H]3CO)O[C@@H]2CO)[C@H](O)[C@@H](O)[C@@H]1N[C@H]1C=C(CO)[C@@H](O)[C@H](O)[C@H]1O (stereo partly drawn)', 'F');

With those in mind, consider the next compound.
hey, is IC50 for `C[C@H](O)Cc1cc2c(O)c(O)cc(O)c2c(=O)o1` lower than 100 µM or not? T
